Each recorded value in this set is attributed to the supplement of paper PMC4840960.

system: E18 rat cortical neuron-glia co-culture; assay: fiber score / MBP score (myelination specific beyond OL differentiation) (ratio); higher = more myelination-specific MBP alignment; conditions: 5 µM; treatment time: 8 days (DIV5-DIV13);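 further: MBP fiber length per Olig2+ nucleus over MBP area × intensity per Olig2+ nucleus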
Here the recorded fiber score / MBP score is given for each entry.
Answer with a bare number; do not write a unit.

As a guide, the following entries are already answered.
>  <Compound>
Cc1ccc(-c2nc3ccc(C)cn3c2CC(=O)N(C)C)cc1

>  <fiber score / MBP score>
0.776

$$$$
>  <Compound>
CCC(C(N)=O)N1CCCC1=O (centres undefined)

>  <fiber score / MBP score>
0.739

$$$$
>  <Compound>
O=C(O)CCCc1ccc(N(CCCl)CCCl)cc1

>  <fiber score / MBP score>
0.615

$$$$

Proceeding to the next compound to report its fiber score / MBP score.
Observed fiber score / MBP score, E18 rat cortical neuron-glia co-culture, c1cncc([C@@H]2CCCN2)c1 : 0.836
